- procedure text: RAM pathway blockade in budding yeast – dse1pr::URA3 reporter, 5-FOA selection, pilot screen (AID 869);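 further: RAM network block rescues cells from 5-FOA so hits raise OD615 growth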
- test context: S. cerevisiae dse1pr::URA3 5-FOA growth, OD615, 2 d; at 10 µM; hits give high values; strain carries analog-sensitive mutant Cbk1 kinase
Parameter threshold = 2%. Response is fulfilled when inhibition meets or exceeds it, else not fulfilled.

* COc1ccc(-n2nnnc2SCC(=O)N2CCOCC2)cc1 | not fulfilled
* CCN(CC)CCCNC(=O)c1cn(C)c2ccc(S(=O)(=O)N(C)C)cc2c1=O | fulfilled
* CCCC(=O)N=c1sc2cccc(F)c2n1C | not fulfilled
* COC(=O)c1ccc(-c2nn(C)c(=O)c3ccccc23)cc1 | not fulfilled
* COc1cccc(/C=N/n2cnnc2)c1OCc1ccccc1 | not fulfilled
* Cc1cc(C)n2c(SCCN3C(=O)c4ccccc4C3=O)nnc2n1 | fulfilled
* CC1=C(C(=O)OC2CCCCCC2)C(c2ccc(C)o2)C2=C(CCCC2=O)N1 (stereo unspecified) | not fulfilled
* COc1ccc(OC)c(C2=NOC(C(=O)Nc3cc(C)nn3-c3ccccc3)C2)c1 (stereo unspecified) | not fulfilled
* Cc1nnc(SCCn2c(N3CCC(Cc4ccccc4)CC3)nc3c2c(=O)[nH]c(=O)n3C)s1 | fulfilled
* COC(=O)C(C)Sc1nnc(Cc2cc(=O)[nH]c(=O)[nH]2)n1-c1cc(C)ccc1C (stereo unspecified) | not fulfilled
* O=NC1=C(c2c(O)[nH]c3ccccc23)CCCC1 | not fulfilled
